- Study system: muscarinic M1 receptor (Homo sapiens)
- Construct: expressed in transfected cells
- Procedure details: R-SAT functional screen, M1
- Format: cell-based
- Condition notes: R-SAT; read-out: M1 eff (efficacy)
- Procedure: Several compounds disclosed herein were evaluated for activity at muscarinic receptors using Receptor Selection and Amplification Technology (R-SAT) as described in U.S. Pat. No. 5,707,798, the disclosure of which is incorporated herein by reference in its entirety. The efficacy (eff) and potency (expressed as pEC50) of these compounds are presented in Table 1 at M1, M2, and M3 receptors.
Give Emax for every item shown.
One number for each entry, in %.

Answered cases to consult:
• Clc1ccc2c(c1)N=C(NC[C@@H]1CCCN1)c1ccccc1N2 = 77
• Cc1ccc2c(c1)N=C(N1CCNCC1)c1ccccc1N2 = 49

Items follow; give Emax for each.
1. Clc1ccc2c(c1)C=C(N1CCNCC1)c1ccccc1N2
2. CN(C)CCNC1=Nc2cc(F)ccc2Nc2ccccc21
3. Brc1ccc2c(c1)N=C(N1CCNCC1)C1CCCC1N2 (stereo not drawn)
4. C[C@@H]1CN(C2=Nc3cc(Cl)ccc3Nc3ccccc32)[C@@H](C)CN1 (relative stereo)

Out:
1. 2
2. 7
3. 50
4. 8

---

- Study system: muscarinic M1 receptor (Homo sapiens)
- Construct: expressed in transfected cells
- Procedure details: R-SAT functional screen, M1
- Type: cell-based
- Condition notes: R-SAT; read-out: M1 pEC50 (converted)
We label by threshold. Values of EC50 strictly beneath 0.5 µM are 1.0. Values of 0.5 µM and up are 0.0.

Record excerpt, results attached:
- Brc1ccc2c(c1)N=C(N1CCNCC1)c1ccccc1N2: 1.0
- Clc1ccc2c(c1)N=C(N1CCNCC1)c1cccc(Cl)c1N2: 1.0
- Clc1ccc2c(c1)N=C(N1CCNCC1)c1cccnc1N2: 0.0
- Clc1ccc2c(c1)N=C(N1CCCCC1)c1ccccc1N2: 0.0
- Fc1ccc2c(c1)C(N1CCNCC1)=Nc1cc(Cl)ccc1N2: 1.0

From here, focus on the item given below.
In: Decide: EC50 of Clc1ccc2c(c1)N=C(N1CC3CC1CN3)c1ccccc1N2 (stereo not shown) strictly below 0.5 µM?
Out: 1.0

---

Give Emax for every item shown.
- Study system: muscarinic M2 receptor (Homo sapiens, UniProt P08172)
- Construct: expressed in transfected cells
- Sequence (P08172 whole entry): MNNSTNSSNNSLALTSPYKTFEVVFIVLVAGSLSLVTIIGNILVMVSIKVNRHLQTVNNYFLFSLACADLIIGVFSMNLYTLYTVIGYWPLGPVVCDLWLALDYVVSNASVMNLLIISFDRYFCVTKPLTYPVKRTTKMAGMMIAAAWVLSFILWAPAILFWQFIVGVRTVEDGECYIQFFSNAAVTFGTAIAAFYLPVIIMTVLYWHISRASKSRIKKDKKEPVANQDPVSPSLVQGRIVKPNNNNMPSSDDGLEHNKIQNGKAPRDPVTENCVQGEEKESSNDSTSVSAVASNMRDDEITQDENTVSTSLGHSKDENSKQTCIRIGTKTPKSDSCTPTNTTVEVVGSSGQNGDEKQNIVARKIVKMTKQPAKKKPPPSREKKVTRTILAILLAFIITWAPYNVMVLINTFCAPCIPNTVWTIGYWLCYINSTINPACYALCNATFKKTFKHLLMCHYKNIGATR
- Procedure details: R-SAT functional screen, M2
- Type: cell-based
- Condition notes: R-SAT; read-out: M2 eff (efficacy)

Answered cases to consult:
* FC(F)(F)c1ccc2c(c1)N=C(N1CCNCC1)c1ccccc1N2 | 131%
* Cc1cccc2c1Oc1ccc(Br)cc1N=C2N1CCNCC1 | 48%
* Clc1ccc2c(c1)Nc1ccc(Br)cc1N=C2N1CCNCC1 | 34%
* Clc1ccc2c(c1)N=C(N1CCNCC1)c1ccccc1C2 | 113%

Items follow; give Emax for each.
1. Brc1ccc2c(c1)N=C(N1CCNCC1)c1ccccc1N2
2. Fc1ccc2c(c1)C(N1CCNCC1)=Nc1cc(Cl)ccc1N2
3. COc1ccc2c(c1)Oc1ccc(Cl)cc1N=C2N1CCNCC1
4. COc1ccc2c(c1)Oc1ccc(C(F)(F)F)cc1N=C2N1CCNCC1
5. N#Cc1ccc2c(c1)N=C(N1CCNCC1)c1ccccc1N2
6. COc1ccc2c(c1)Oc1ccc(F)cc1N=C2N1CCNCC1

Out:
121%
121%
19%
17%
106%
49%

---

- Study system: muscarinic M1 receptor (Homo sapiens)
- Construct: expressed in transfected cells
- Procedure details: R-SAT functional screen, M1
- Type: cell-based
- Condition notes: read-out: M1 eff (efficacy)
Give Emax for every item shown.
Numbers only, in %.

Answered cases to consult:
• Fc1ccc2c(c1)N=C(N1CCCNCC1)c1ccccc1N2 = 25
• c1ccc2c(c1)N=C(N1CCCNCC1)c1ccccc1N2 = 18

As a next step, examine the molecule that follows.
In: State measured Emax of the molecule `Clc1ccc2c(c1)N=C(N1CCCNCC1)c1ccccc1N2` with muscarinic M1 receptor (Homo sapiens).
Out: 37

---

- Study system: muscarinic M2 receptor (Homo sapiens)
- Construct: expressed in transfected cells
- Procedure details: R-SAT functional screen, M2
- Type: cell-based
- Condition notes: R-SAT; read-out: M2 pEC50 (converted)
- Method: Several compounds disclosed herein were evaluated for activity at muscarinic receptors using Receptor Selection and Amplification Technology (R-SAT) as described in U.S. Pat. No. 5,707,798, the disclosure of which is incorporated herein by reference in its entirety. The efficacy (eff) and potency (expressed as pEC50) of these compounds are presented in Table 1 at M1, M2, and M3 receptors.
Give EC50 for every item shown.
Give bare numbers, in µM.

Items follow; give EC50 for each.
1. CC1CN(C2=Nc3cc(Cl)ccc3Nc3ccccc32)CCN1 (stereo not drawn)
2. Cc1cccc2c1Oc1ccc(C(F)(F)F)cc1N=C2N1CCNCC1
3. Cc1cccc2c1Nc1ccc(Cl)cc1N=C2N1CCNCC1
4. Clc1ccc2c(c1)N=C(N1CCNCC1)c1ccccc1S2
5. COc1ccc2c(c1)Oc1ccccc1N=C2N1CCNCC1
6. Clc1ccc2c(c1)Nc1ccccc1N=C2N1CCNCC1

Out:
1. 1.58
2. 0.794
3. 1
4. 1.26
5. 2.51
6. 2

---

- Study system: muscarinic M2 receptor (Homo sapiens)
- Construct: expressed in transfected cells
- Procedure details: R-SAT functional screen, M2
- Type: cell-based
- Condition notes: R-SAT; read-out: M2 pEC50 (converted)
We label by threshold. Values of EC50 strictly beneath 1000 nM are yes (1). Values of 1000 nM and up are no (0).

In: Decide: EC50 of `Clc1ccc2c(c1)N=C(N1CCNCC1)c1ccc(Cl)cc1N2` strictly below 1000 nM?
Out: no (0)

---

- Study system: muscarinic M1 receptor (Homo sapiens, UniProt P11229)
- Construct: expressed in transfected cells
- Sequence (P11229 whole entry): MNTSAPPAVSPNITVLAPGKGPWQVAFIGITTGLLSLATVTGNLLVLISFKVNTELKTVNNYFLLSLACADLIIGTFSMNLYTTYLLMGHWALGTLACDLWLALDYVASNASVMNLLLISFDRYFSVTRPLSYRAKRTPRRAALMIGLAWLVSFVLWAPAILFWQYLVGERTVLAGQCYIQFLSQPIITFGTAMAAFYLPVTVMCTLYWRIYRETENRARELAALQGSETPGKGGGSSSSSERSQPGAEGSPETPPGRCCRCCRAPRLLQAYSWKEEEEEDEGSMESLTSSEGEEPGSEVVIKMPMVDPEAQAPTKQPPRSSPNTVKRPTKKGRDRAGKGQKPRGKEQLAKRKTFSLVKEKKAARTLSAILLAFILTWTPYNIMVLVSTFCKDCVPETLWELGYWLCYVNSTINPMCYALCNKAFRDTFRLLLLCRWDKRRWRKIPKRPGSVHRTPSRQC
- Procedure details: R-SAT functional screen, M1
- Format: cell-based
- Condition notes: R-SAT; read-out: M1 eff (efficacy)
Reported endpoint: Emax

Answered cases to consult:
- CC1CN(C2=Nc3cc(Cl)ccc3Nc3ccccc32)CC(C)N1 (stereo not drawn): 18%
- Clc1ccc2c(c1)N=C(N1CCNCC1)c1ccccc1S2: 11%
- Cc1ccc2c(c1)C(N1CCNCC1)=Nc1cc(Br)ccc1N2: 8%
- Clc1ccc2c(c1)N=C(N1CCCCC1)c1ccccc1N2: 47%
- O=S(=O)(Oc1ccc2c(c1)C(N1CCNCC1)=Nc1ccccc1N2)C(F)(F)F: -8%
- Fc1ccc2c(c1)N=C(N1CCNCC1)c1ccccc1N2: 32%

Items follow; give Emax for each.
1. CN(C)CCNC1=Nc2ccccc2Nc2ccccc21
2. CCCCCCCCCc1ccc(C2=Nc3cc(Cl)ccc3Nc3ccccc32)cc1
3. Clc1ccc2c(c1)N=C(C1CCNCC1)c1ccccc1N2Cc1ccccc1

Out:
1. 10%
2. 1%
3. 12%

Items follow; give Emax for each.
1. N#Cc1ccc2c(c1)N=C(N1CCNCC1)c1ccccc1N2
2. COc1ccc2c(c1)C(N1CCNCC1)=Nc1cc(Cl)ccc1N2
3. Clc1ccc2c(c1)N=C(N1CCOCC1)c1ccccc1N2

Out:
1. 49%
2. 7%
3. 11%

---

- Study system: muscarinic M1 receptor (Homo sapiens)
- Construct: expressed in transfected cells
- Procedure details: R-SAT functional screen, M1
- Type: cell-based
- Condition notes: R-SAT; read-out: M1 eff (efficacy)
We label by threshold. Values of Emax strictly beneath 20% are label 1. Values of 20% and up are label 0.

Record excerpt, results attached:
* FC(F)(F)c1ccc2c(c1)N=C(N1CCNCC1)c1cc(Cl)ccc1N2 | label 1
* Clc1ccc2c(c1)Nc1cc(Cl)ccc1C(N1CCNCC1)=N2 | label 1
* CN1CCN(C2=Nc3cc(Cl)ccc3Oc3ccccc32)CC1 | label 1
* CN(C)CCNC1=Nc2cc(Cl)ccc2Nc2ccccc21 | label 1
* Clc1ccc2c(c1)N=C(N1CCNCC1)c1ccccc1O2 | label 0
* Clc1ccc2c(c1)Nc1ccc(Cl)cc1C(N1CCNCC1)=N2 | label 1

In: Decide: Emax of `Clc1ccc2c(c1)Nc1ccc(Br)cc1N=C2N1CCNCC1` strictly below 20%?
Out: label 0

In: Decide: Emax of Clc1ccc2c(c1)N=C(N1CCNC(c3ccccc3)C1)c1ccccc1N2 (stereo not shown) strictly below 20%?
Out: label 1

In: Decide: Emax of `Fc1ccc2c(c1)C(N1CCNCC1)=Nc1cc(Cl)ccc1N2` strictly below 20%?
Out: label 0

In: Decide: Emax of Clc1ccc2c(c1)N=C(N1CC3CC1CN3)c1ccccc1N2 (stereo not shown) strictly below 20%?
Out: label 0

---

Give EC50 for every item shown.
- Study system: muscarinic M2 receptor (Homo sapiens, UniProt P08172)
- Construct: expressed in transfected cells
- Procedure details: R-SAT functional screen, M2
- Type: cell-based
- Condition notes: R-SAT; read-out: M2 pEC50 (converted)
Give bare numbers, in nM.

Answered cases to consult:
* Fc1ccc2c(c1)N=C(N1CCNCC1)c1ccccc1N2 | 2000
* Fc1ccc2c(c1)C(N1CCNCC1)=Nc1cc(Cl)ccc1N2 | 3160
* FC(F)(F)c1ccc2c(c1)N=C(N1CCNCC1)c1ccccc1O2 | 1260
* Clc1cccc2c1C(N1CCNCC1)=Nc1cc(Br)ccc1N2 | 2510
* c1ccc(-c2ccc3c(c2)N=C(N2CCNCC2)c2ccccc2N3)cc1 | 2000
* CN1c2ccc(Cl)cc2N=C(N2CCNCC2)c2ccccc21 | 1260
* N#Cc1ccc2c(c1)N=C(N1CCNCC1)c1ccccc1N2 | 1000
* Cc1ccc2c(c1)N=C(N1CCNCC1)c1cccc(C)c1O2 | 794

Items follow; give EC50 for each.
1. Clc1ccc2c(c1)N=C(N1CCNCC1)c1c(Cl)cccc1N2
2. Clc1ccc2c(c1)N=C(N1CC3CC1CN3)c1ccccc1N2 (stereo not shown)
3. Clc1ccc2c(c1)C(N1CCNCC1)=Nc1cc(Br)ccc1N2
4. Clc1ccc2c(c1)Nc1ccc(Br)cc1N=C2N1CCNCC1
5. Fc1ccc2c(c1)N=C(N1CCNCC1)c1ccccc1C2
6. c1ccc(-c2ccc3c(c2)N=C(N2CCNCC2)c2ccccc2O3)cc1

Out:
[2000, 2510, 3160, 316, 794, 1260]

Items follow; give EC50 for each.
1. Clc1ccc2c(c1)Oc1ccccc1C(N1CCNCC1)=N2
2. Cc1cccc2c1Oc1ccc(Br)cc1N=C2N1CCNCC1

Out:
[1260, 1580]
